study system: CBP (Homo sapiens (Human), UniProt Q92793)
Sequence (Q92793 1085-1192): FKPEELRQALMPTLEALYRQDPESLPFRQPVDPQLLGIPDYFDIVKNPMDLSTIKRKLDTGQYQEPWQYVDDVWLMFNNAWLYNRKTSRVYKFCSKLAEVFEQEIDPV
method summary: HTRF biochemical assay for CBP activity (TR-FRET, bromodomain)
Assay type: binding
condition context: geometric mean, 10-point 3-fold dilution 33 μM to 1.7 nM, read-out: BROMO IC50 TRF TB CBP (μM gmean)
# IC50 values compiled below

compound: COC(=O)N1CCc2ccc3c(nc(-c4ccccn4)n3[C@@H](C)Cc3ccccc3)c2C1
IC50: 0.001 to 0.01 µM
//
compound: COC(=O)N1CCc2ccc3c(nc(N4CCC[C@H](C(=O)O)C4)n3[C@H](C)Cc3ccccc3)c2C1
IC50: 0.1 to 1 µM
//
compound: COC(=O)N1CCc2ccc3c(nc(C4CCCCC4)n3[C@H](C)C[C@H]3CCCC[C@@H]3C(=O)O)c2C1
IC50: 0.001 to 0.01 µM
//
compound: COC(=O)N1CCc2ccc3c(nc([C@H]4CC[C@@H](C(=O)O)C4)n3[C@H](C)Cc3ccccc3C)c2C1
IC50: 0.001 to 0.01 µM
//
compound: COC(=O)N1CCc2ccc3c(nc([C@H]4CC[C@@H](C(=O)O)CC4)n3[C@@H](C)Cc3ccccc3)c2C1
IC50: 0.01 to 0.1 µM

(Q) Look up and report IC50, with CBP (Homo sapiens (Human), UniProt Q92793) as system, for COC(=O)N1CCc2ccc3c(nc(C4CCCC4)n3C[C@@H](CC(=O)O)c3ccccc3)c2C1 (single isomer, unassigned)
(A) 0.001 to 0.01 µM

(Q) Look up and report IC50, with CBP (Homo sapiens (Human), UniProt Q92793) as system, for COC(=O)N1CCc2ccc3c(nc([C@H]4CCC[C@H](C(=O)O)C4)n3[C@@H](C)Cc3ccccc3C)c2C1 (single isomer, unassigned)
(A) 0.001 to 0.01 µM

(Q) Look up and report IC50, with CBP (Homo sapiens (Human), UniProt Q92793) as system, for COC(=O)N1CCc2ccc3c(nc([C@H]4CCC[C@H](C(=O)O)C4)n3C(C)Cc3ccccc3Cl)c2C1 (stereo in doubt)
(A) 0.001 to 0.01 µM

(Q) Look up and report IC50, with CBP (Homo sapiens (Human), UniProt Q92793) as system, for `COC(=O)N1CCc2ccc3c(nc([C@@H]4CCC[C@@H](C(=O)O)C4)n3CC[C@H]3CC[C@@H](OC)CC3)c2C1`
(A) 0.01 to 0.1 µM

(Q) Look up and report IC50, with CBP (Homo sapiens (Human), UniProt Q92793) as system, for `COC(=O)N1CCc2ccc3c(nc(N4CCC[C@@H](C(=O)O)C4)n3C[C@H](C)c3ccccc3)c2C1`
(A) 0.001 to 0.01 µM

(Q) Look up and report IC50, with CBP (Homo sapiens (Human), UniProt Q92793) as system, for `COC(=O)N1CCc2ccc3c(nc([C@H]4CC[C@@H](C(=O)O)CC4)n3CCn3cc(Cl)cn3)c2C1`
(A) 0.1 to 1 µM

(Q) Look up and report IC50, with CBP (Homo sapiens (Human), UniProt Q92793) as system, for `COC(=O)N1CCc2ccc3c(nc([C@H]4C[C@@H](C(=O)O)C4)n3[C@H](C)Cc3ccccc3C)c2C1`
(A) 0.1 to 1 µM

(Q) Look up and report IC50, with CBP (Homo sapiens (Human), UniProt Q92793) as system, for `COC(=O)N1CCc2ccc3c(nc(C4CCCCC4)n3CC[C@@H]3CCC[C@H](C(=O)O)C3)c2C1`
(A) 0.001 to 0.01 µM

(Q) Look up and report IC50, with CBP (Homo sapiens (Human), UniProt Q92793) as system, for `COC(=O)N1CCc2ccc3c(nc([C@H]4CC[C@H](C(=O)O)CC4)n3[C@H](C)Cc3cc(F)cc(F)c3)c2C1`
(A) 0.01 to 0.1 µM

(Q) Look up and report IC50, with CBP (Homo sapiens (Human), UniProt Q92793) as system, for `COC(=O)N1CCc2ccc3c(nc([C@H]4CC[C@H](C(=O)O)CC4)n3[C@@H](C)Cc3ccc(C)cc3)c2C1`
(A) 0.001 to 0.01 µM

(Q) Look up and report IC50, with CBP (Homo sapiens (Human), UniProt Q92793) as system, for COC(=O)N1CCc2ccc3c(nc([C@@H]4CCC[C@H](C(=O)O)C4)n3[C@H](C)Cc3ccccc3)c2C1 (single isomer, unassigned)
(A) 0.01 to 0.1 µM

---

study system: CBP (Homo sapiens (Human), UniProt Q92793)
method summary: HTRF biochemical assay for CBP activity (TR-FRET, bromodomain)
Type: binding
condition context: geometric mean, 10-point 3-fold dilution 33 μM to 1.7 nM, read-out: BROMO IC50 TRF TB CBP (μM gmean)
Protocol: Example 1: HTRF Biochemical Assay for CBP Activity The assay was performed in a final volume of 6 μL in assay buffer containing 50 mM Hepes (pH 7.5, (0.5M Hepes, pH 7.5 solution; Teknova H1575)), 0.5 mM GSH, 0.01% BGG (0.22 p M filtered, Sigma, G7516-25G), 0.005% BSA (0.22 μM filtered, EMD Millipore Corporation, 126575) and 0.01% Triton X-100 (Sigma, T9284-10L). […]
# IC50 values compiled below

chemical structure: COC(=O)N1CCc2ccc3c(nc(C4CCCCC4)n3C[C@H](CC(=O)O)c3ccccc3C)c2C1
IC50: 0.001 to 0.01 µM

chemical structure: COC(=O)N1CCc2ccc3c(nc([C@@H]4CCC[C@@H](C(=O)O)C4)n3C[C@H]3CC[C@H](OC)CC3)c2C1
IC50: 0.01 to 0.1 µM

chemical structure: COC(=O)N1CCc2ccc3c(nc(C4CCCCC4)n3CCc3ccccc3C(=O)O)c2C1
IC50: 0.001 to 0.01 µM

Query compound follows.
(Q) Query IC50 for `COC(=O)N1CCc2ccc3c(nc(C4CCCCC4)n3CC[C@@H]3CCCC[C@@H]3C(=O)O)c2C1`
(A) 0.01 to 0.1 µM

---

study system: CBP (Homo sapiens (Human), UniProt Q92793)
method summary: HTRF biochemical assay for CBP activity (TR-FRET, bromodomain)
Type: binding
condition context: geometric mean, 10-point 3-fold dilution 33 μM to 1.7 nM, read-out: BROMO IC50 TRF TB CBP (μM gmean)
test readout: IC50

chemical structure: COC(=O)N1CCc2c(C#N)cc3c(nc([C@H]4CC[C@H](C(=O)O)CC4)n3CCc3ccccc3)c2C1
IC50: 0.001 to 0.01 µM
--
chemical structure: COC(=O)N1CCc2ccc3c(nc(C4CCN(S(C)(=O)=O)CC4)n3[C@H](C)Cc3ccccc3)c2C1
IC50: 0.1 to 1 µM
--
chemical structure: COC(=O)N1CCc2ccc3c(nc([C@H]4CC[C@H](S(N)(=O)=O)CC4)n3[C@@H](C)Cc3ccccc3)c2C1
IC50: 0.001 to 0.01 µM
--
chemical structure: COC(=O)N1CCc2ccc3c(nc([C@H]4CC[C@@H](C(=O)O)CC4)n3CCc3ccccc3)c2C1
IC50: 0.1 to 1 µM
--
chemical structure: COC(=O)N1CCc2ccc3c(nc([C@H]4CC[C@H](C(=O)O)CC4)n3[C@@H](C)C[C@H]3CC[C@@H](OC)CC3)c2C1
IC50: 0.01 to 0.1 µM

(Q) Query IC50 for `COC(=O)N1CCc2ccc3c(nc(C4CCCCC4)n3C[C@H](CC(=O)O)c3ccccc3)c2C1`
(A) 0.001 to 0.01 µM

(Q) Query IC50 for `COC(=O)N1CCc2ccc3c(nc(C4CCCCC4)n3[C@H](C)Cc3cccc(C(=O)O)c3)c2C1`
(A) 0.1 to 1 µM

---

# IC50 values compiled below
study system: CBP (Homo sapiens (Human))
method summary: HTRF biochemical assay for CBP activity (TR-FRET, bromodomain)
Type: binding
condition context: geometric mean, 10-point 3-fold dilution 33 μM to 1.7 nM, read-out: BROMO IC50 TRF TB CBP (μM gmean)

Example results:
compound: COC(=O)N1CCc2ccc3c(nc([C@H]4CC[C@H](C(=O)O)CC4)n3[C@H](C)C[C@@H]3CCCCO3)c2C1
test readout: IC50
measured result: 0.1 to 1 µM
--
compound: COC(=O)N1CCc2ccc3c(nc([C@H]4CC[C@H](C(=O)O)CC4)n3[C@@H](C)Cc3cc(F)cc(F)c3)c2C1 (single isomer, unassigned)
test readout: IC50
measured result: 0.001 to 0.01 µM
--
compound: COC(=O)N1CCc2ccc3c(nc(C4CCCCC4)n3C[C@H](C(=O)O)c3cccc(F)c3F)c2C1 [Compound 104]
test readout: IC50
measured result: 0.001 to 0.01 µM
--
compound: COC(=O)N1CCc2ccc3c(nc([C@H]4CC[C@](C)(C(=O)O)CC4)n3[C@H](C)Cn3cc(Cl)cn3)c2C1
test readout: IC50
measured result: 0.1 to 1 µM
--
compound: COC(=O)N1CCc2ccc3c(nc([C@H]4CCCOC4)n3C[C@H](C(=O)O)c3ccc(C)cc3)c2C1
test readout: IC50
measured result: 0.001 to 0.01 µM

Query compound follows.
(Q) Query IC50 for COC(=O)N1CCc2ccc3c(nc([C@@H]4CCC[C@@H](C(=O)O)C4)n3C[C@@H](C)c3ccc(F)c(F)c3)c2C1 (single isomer, unassigned)
(A) 0.001 to 0.01 µM
